B1: KRT33B (parent)
chain: YQSYFKTIEELQQKILCSKSENAR

- Variants of: B1
- protocol description: protein stability index of a GFP-peptide fusion (GPS, HEK-293T) (PSI 1-6); higher = more stable;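 also: lentivirally expressed fusions sorted by FACS into six bins by GFP to DsRed ratio, PSI derived from sequencing read proportions per bin multiplied by bin number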
- applied conditions: c terminus: a fixed tail appended
measurement kind: protein stability index
Give the figure only, with no unit attached.

Known results for variants:
{"columns": ["mutant label", "value observed"],
 "data": [
  ["S3K", 1.98],
  ["K14W", 3.51],
  ["K6N", 1.88],
  ["S18G", 2.21],
  ["Y4R", 2.25]
]}

Task: Let me know recorded protein stability index for `S20Y` , thanks.
Result: 1.95

Task: Report measured protein stability index; entry is `E9V`
Result: 1.98

Task: Return protein stability index (reported value) for this variant: `L16V`
Result: 2.89

Task: Quick one: give measured protein stability index for `L16S`
Result: 2

The reported measurements were obtained from the supplement of paper PMC10567573.
